Assignment: determine reported inhibition for the given compounds.
biological target: MAP kinase-interacting serine/threonine-protein kinase 1 (Homo sapiens) (UniProt Q9BUB5); assay: Inhibition of MNK1 (unknown origin) at 10 uM
Sequence (Q9BUB5 whole entry, looked up): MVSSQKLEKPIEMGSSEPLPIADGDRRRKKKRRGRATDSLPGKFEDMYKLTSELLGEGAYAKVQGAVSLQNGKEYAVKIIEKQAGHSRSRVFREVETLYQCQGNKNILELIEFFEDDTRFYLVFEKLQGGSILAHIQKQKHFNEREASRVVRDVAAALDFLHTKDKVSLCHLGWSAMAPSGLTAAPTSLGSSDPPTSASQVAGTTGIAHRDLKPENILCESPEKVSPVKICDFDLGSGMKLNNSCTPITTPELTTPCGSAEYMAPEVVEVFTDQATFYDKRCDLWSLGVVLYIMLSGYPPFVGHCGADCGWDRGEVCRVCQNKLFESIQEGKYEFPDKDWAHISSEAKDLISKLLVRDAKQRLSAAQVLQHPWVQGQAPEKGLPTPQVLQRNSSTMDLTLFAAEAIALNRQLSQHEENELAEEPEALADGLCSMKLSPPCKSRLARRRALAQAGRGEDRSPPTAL
Report as a plain number; the unit % is understood.

stdin: Return reported inhibition for target or system MAP kinase-interacting serine/threonine-protein kinase 1 (Homo sapiens) (UniProt Q9BUB5), item "COc1cc(O)c(C(=O)OCc2ccc(F)cc2)c(/C=C/CN2C(=O)C=CC2=O)c1" .
stdout: 4.1

stdin: Return reported inhibition for target or system MAP kinase-interacting serine/threonine-protein kinase 1 (Homo sapiens) (UniProt Q9BUB5), item "CCN(CC)C/C=C/C(=O)NC/C=C/c1cc(OC)cc(O)c1C(=O)OC(C)C" .
stdout: 12.5

stdin: Return reported inhibition for target or system MAP kinase-interacting serine/threonine-protein kinase 1 (Homo sapiens) (UniProt Q9BUB5), item COc1cc(O)c(C(=O)OCC(C)c2ccccc2)c(/C=C/CN2C(=O)C=CC2=O)c1 (stereo not given) .
stdout: 8.6

stdin: Return reported inhibition for target or system MAP kinase-interacting serine/threonine-protein kinase 1 (Homo sapiens) (UniProt Q9BUB5), item "CCN(CC)C/C=C/C(=O)NC/C=C/c1cc(OCCc2ccc(F)cc2)cc(O)c1C(=O)OC(C)C" .
stdout: 7.8

stdin: Return reported inhibition for target or system MAP kinase-interacting serine/threonine-protein kinase 1 (Homo sapiens) (UniProt Q9BUB5), item "COc1cc(O)c(C(=O)OCC2CCCCC2)c(/C=C/CN2C(=O)C=CC2=O)c1" .
stdout: 9.7

stdin: Return reported inhibition for target or system MAP kinase-interacting serine/threonine-protein kinase 1 (Homo sapiens) (UniProt Q9BUB5), item "COc1cc(O)c(C(=O)OCc2ccc(Br)cc2)c(/C=C/CN2C(=O)C=CC2=O)c1" .
stdout: 4.3

stdin: Return reported inhibition for target or system MAP kinase-interacting serine/threonine-protein kinase 1 (Homo sapiens) (UniProt Q9BUB5), item "COc1cc(O)c(C(=O)OC(C)C)c(CCCN2C(=O)C=CC2=O)c1" .
stdout: 6.2

stdin: Return reported inhibition for target or system MAP kinase-interacting serine/threonine-protein kinase 1 (Homo sapiens) (UniProt Q9BUB5), item "C=CS(=O)(=O)NC/C=C/c1cc(OC)cc(O)c1C(=O)OC(C)C" .
stdout: 5.6

stdin: Return reported inhibition for target or system MAP kinase-interacting serine/threonine-protein kinase 1 (Homo sapiens) (UniProt Q9BUB5), item "CC(C)OC(=O)c1c(O)cc(OCCN2CCOCC2)cc1CCCN1C(=O)C=CC1=O" .
stdout: 8.8

stdin: Return reported inhibition for target or system MAP kinase-interacting serine/threonine-protein kinase 1 (Homo sapiens) (UniProt Q9BUB5), item "COc1cc(O)c(C(=O)OC(C)C)c(/C=C/CN2C(=O)C=CC2=O)c1" .
stdout: 5.4
